Every entry's value here was drawn from patent US4668514A.

Molecular target: penicillinase (β-lactamase) derived from Bacillus sp.
Test: β-lactamase inhibitory activity measured by microiodometry using penicillin G as substrate
Conditions: read-out: 50% Inhibitory Concentration
pIC50: −log10 of the molar value.
# if value of pIC50 reaches 6, tag yes; if it stays below, tag no

molecule: C[C@]1(Cn2nnc(C(N)=O)c2C(N)=O)[C@H](C(=O)O)N2C(=O)C[C@H]2S1(=O)=O [Compound 31]
target system: penicillinase (β-lactamase) derived from Bacillus sp.
cat: yes
//
molecule: CCOC(=O)c1nnn(C[C@@]2(C)[C@H](C(=O)O)N3C(=O)C[C@H]3S2(=O)=O)c1-c1ccccc1 [Compound 44]
target system: penicillinase (β-lactamase) derived from Bacillus sp.
cat: yes
//
molecule: CCCCc1cnnn1C[C@@]1(C)[C@H](C(=O)O)N2C(=O)C[C@H]2S1(=O)=O [Compound 9]
target system: penicillinase (β-lactamase) derived from Bacillus sp.
cat: yes
//
molecule: Cc1nnn(C[C@@]2(C)[C@H](C(=O)O)N3C(=O)C[C@H]3S2(=O)=O)c1C [Compound 2]
target system: penicillinase (β-lactamase) derived from Bacillus sp.
cat: yes
//
molecule: CCNC(=O)c1cn(C[C@@]2(C)[C@H](C(=O)O)N3C(=O)C[C@H]3S2(=O)=O)nn1 [Compound 29]
target system: penicillinase (β-lactamase) derived from Bacillus sp.
cat: yes
//
molecule: COCc1cnnn1C[C@@]1(C)[C@H](C(=O)O)N2C(=O)C[C@H]2S1(=O)=O [Compound 22]
target system: penicillinase (β-lactamase) derived from Bacillus sp.
cat: no
//
molecule: CC(=O)OCc1nnn(C[C@@]2(C)[C@H](C(=O)O)N3C(=O)C[C@H]3S2(=O)=O)c1COC(C)=O [Compound 47]
target system: penicillinase (β-lactamase) derived from Bacillus sp.
cat: no
//
molecule: C[C@]1(Cn2nncc2-c2ccccc2)[C@H](C(=O)O)N2C(=O)C[C@H]2S1(=O)=O [Compound 15]
target system: penicillinase (β-lactamase) derived from Bacillus sp.
cat: yes
//
molecule: C[C@]1(Cn2cc(-c3ccccc3)nn2)[C@H](C(=O)O)N2C(=O)C[C@H]2S1(=O)=O [Compound 14]
target system: penicillinase (β-lactamase) derived from Bacillus sp.
cat: yes
//
molecule: CCCCc1nnn(C[C@@]2(C)[C@H](C(=O)O)N3C(=O)C[C@H]3S2(=O)=O)c1CCCC [Compound 5]
target system: penicillinase (β-lactamase) derived from Bacillus sp.
cat: no
//
molecule: CCCCc1cn(C[C@@]2(C)[C@H](C(=O)O)N3C(=O)C[C@H]3S2(=O)=O)nn1 [Compound 8]
target system: penicillinase (β-lactamase) derived from Bacillus sp.
cat: yes
//
molecule: CC(=O)c1cn(C[C@@]2(C)[C@H](C(=O)OCc3ccc([N+](=O)[O-])cc3)N3C(=O)C[C@H]3S2(=O)=O)nn1 [Compound 32]
target system: penicillinase (β-lactamase) derived from Bacillus sp.
cat: yes
//
molecule: CCOC(=O)c1c(-c2ccccc2)nnn1C[C@@]1(C)[C@H](C(=O)O)N2C(=O)C[C@H]2S1(=O)=O [Compound 45]
target system: penicillinase (β-lactamase) derived from Bacillus sp.
cat: yes
//
molecule: C[C@]1(Cn2cc(C(F)(F)F)nn2)[C@H](C(=O)O)N2C(=O)C[C@H]2S1(=O)=O [Compound 19]
target system: penicillinase (β-lactamase) derived from Bacillus sp.
cat: yes
